Tested on: HCT-15 colon
test_protocol: NCI tumour cell line growth inhibition, 48 h
result_type: GI50

# example entries with known answers
COc1cc(CCC(=O)NC[C@@H](O)c2ccccc2)ccc1O : > 100 µM
Oc1ccccc1/C=N\NC(=S)N/N=C/c1ccccc1O : 0.589 µM
Cn1c(-c2c(N)n(Cc3ccc(F)cc3)c3nc(C#N)c(C#N)nc23)nc2ccccc21 : 2.05 µM

Dear reader, for each entry below, please note its GI50.
1. Cc1ccccc1C(C(=O)NC1CCCCC1)N(C(=O)CNc1ncccc1F)c1cccc(F)c1 (stereo not given)
2. CN(C)CCNC(=O)c1ccc2oc3cc4ccccc4c(=O)n3c2c1
3. [Cu+2].[NH-]C(CC(=O)O)C(=O)O.[NH-]C(CC(=O)O)C(=O)O (stereo not given)
4. O=C1c2c(Cl)c(Cl)c(Cl)c(Cl)c2C(=O)C2(Cl)CC=CCC12Cl (stereo not given)

Ans:
1. > 100 µM
2. 28.2 µM
3. > 100 µM
4. 1.19 µM

---

Tested on: U251 CNS
test_protocol: NCI tumour cell line growth inhibition, 48 h
result_type: TGI

C=C(Cl)C(C)(Cl)CCC(Cl)C(C)C (stereo unspecified) : > 100 µM

Dear reader, for each entry below, please note its TGI.
1. CN1CCN(Cc2nc3c(s2)CCc2sccc2-3)CC1
2. O=C(c1ccccc1)c1nc2ccc(C(F)(F)F)cc2nc1N1CCN(c2ccccc2)CC1
3. Cc1cn(C2CCN(CC3COC(C)(C)O3)O2)c(=O)[nH]c1=O (stereo unspecified)
4. O=c1[nH]c(=O)n(CCOc2ccc(Cl)cc2)cc1Nc1ccccc1
5. c1ccc2c(CNCCCCCCCCNCc3cccc4ccccc34)cccc2c1

Ans:
["> 100 µM", "> 100 µM", "> 100 µM", "> 100 µM", "3.13 µM"]

---

Test system: SN12C renal
test_protocol: NCI tumour cell line growth inhibition, 48 h; in the data active = GI50 below about 0.43 µM; inactive = the rest
Residues, ends and D or L forms follow the SMILES beside them. *: point of attachment. Cbz = O=C(OCc1ccccc1)*
The reply should name one outcome from active, inactive

Below are worked cases with known answers.
CC(C)C[C@@H](C=O)NC(=O)[C@H](CC(C)C)NC(=O)[C@H](CC(C)C)NC(=O)OCc1ccccc1 (Cbz-Leu-Leu-Leu-aldehyde) : active
CC(C)C(=O)c1c(C(F)(F)F)n([O-])c2ccccc2[n+]1=O : inactive

Q: What did this assay record as the result for COc1cc(C2CC(=O)Nc3c2c(C)nn3-c2nc3ccccc3[nH]2)cc(OC)c1O (configuration not stated) ?
Ans: inactive

Q: What did this assay record as the result for NC(N)=Nc1ccc(/C=C2\C=Cc3ccccc32)cc1 ?
Ans: inactive

---

Test system: ACHN renal
test_protocol: NCI tumour cell line growth inhibition, 48 h
result_type: TGI (µM)
Numbers only, in µM.

CC(C)(C)[Si](C)(C)OCC1OC(n2ccc(=O)[nH]c2=O)C(O[Si](C)(C)C(C)(C)C)[C@]12O[C@@H]2CO (stereo partly drawn) : 24.2
Cc1ccc(C(=O)NCCN(C)C)c2nc3ccccc3cc12 : 10.3
CC(=O)NC1COC(COC(=O)CCCCCCCCCCNC(=O)c2ccc([N+](=O)[O-])c3c(=O)c4ccccc4[nH]c23)C(O)C1OC(C)C(=O)NC(C(=O)NC(CCC(N)=O)C(=O)OCc1ccccc1)C(C)C (stereo not drawn) : 39.4
Nc1cc(Cl)ccc1SSc1ccc(Cl)cc1N : 21.3
COc1ccccc1NC(=O)CC(=O)N1N=C(c2ccccc2)C(N=Nc2ccc(Cl)cc2)C1=O (stereo not drawn) : 47.3

We now examine a further compound.
Q: I'd like to know its TGI. The compound in question is C=C1C(=O)O[C@H]2[C@H]1CC/C(CNC(=O)/C=C/c1ccccc1F)=C\CC[C@@]1(C)O[C@@H]21
Ans: 2.53

---

I'd appreciate it if you could supply GI50 values for the items below.
Test system: OVCAR-4 ovarian
test_protocol: NCI tumour cell line growth inhibition, 48 h

# example entries with known answers
C=C1C(=O)O[C@H]2[C@H]1CC/C(CNC(=O)/C=C/c1ccccc1F)=C\CC[C@@]1(C)O[C@@H]21 : 1.66 µM
COc1ccc2nc3cccc([N+](=O)[O-])c3c(NC(C)CN(C)C)c2c1 (configuration not stated) : 2 µM
COc1cc2c(c(OC)c1OC)-c1c(c3ccc([N+](=O)[O-])cc3c(=O)n1CCCN)C2=O : 2.9 µM
N#Cc1c(N/N=C\c2ccc(Cl)cc2)nc(N)nc1N1CCOCC1 : 94.4 µM

Dear reader, for each entry below, please note its GI50.
1. CCCCCCCCCCCCCCCCN(CC)CC
2. C=CCOC(=O)Nc1cccn([C@H](CC(C)C)C(=O)NCCC(C)C)c1=O
3. CN1CCN(CCCN2c3ccccc3Sc3ccc(Cl)cc32)CC1
4. O=C1c2c(Cl)c(Cl)c(Cl)c(Cl)c2C(=O)C2(Cl)CC=CCC12Cl (configuration not stated)

Ans:
1. 3.31 µM
2. 28.1 µM
3. 5.74 µM
4. 1.9 µM

---

System: SNB-19 CNS
test_protocol: NCI tumour cell line growth inhibition, 48 h
I'd appreciate it if you could supply TGI values for the items below.

COc1cc(C2C(=O)C(Cl)N2Nc2nc(C)cc(=O)[nH]2)cc(OC)c1OC (centres undefined) : > 100 µM
O=c1[nH]c2cc([N+](=O)[O-])c(N/N=C/c3ccc(Cl)cc3Cl)c([N+](=O)[O-])c2[nH]1 : > 100 µM
O=C(CSSCC(=O)Nc1ccc(Br)cc1)Nc1ccc(Br)cc1 : 29.4 µM
Cc1ccc(C(=O)Nc2ncn(C3CC(O)C(CO)O3)c(=O)n2)cc1 (centres undefined) : > 100 µM
O=C1C=C(c2ccccc2)O/C1=C\C(=O)c1ccc(Cl)cc1 : > 100 µM

Dear reader, for each entry below, please note its TGI.
1. COc1ccc(-c2cn(-c3cc(OC)c(OC)c(OC)c3)c(=O)[nH]2)cc1OC
2. CC(C)(C)[Si](C)(C)OCC1OC(n2ccc(=O)[nH]c2=O)C(O[Si](C)(C)C(C)(C)C)[C@]12O[C@@H]2CO (some centres undefined)

Ans:
> 100 µM
24 µM

---

Tested on: EKVX NSCLC
test_protocol: NCI tumour cell line growth inhibition, 48 h
result_type: TGI

NC(=O)CCSC(CC(=O)c1ccc(Cl)cc1)c1ccc(Cl)cc1 (stereo unspecified) : 93.7 µM
Cc1ccc(-c2nnc3s/c(=C\c4ccc(N(C)C)cc4)c(=O)n23)cc1 : > 100 µM
Cc1cccc(C)c1N=Nc1ccc(O)c(CN(C)C)c1 : > 100 µM

Dear reader, for each entry below, please note its TGI.
1. O=C(c1ccccc1)c1nc2ccc(C(F)(F)F)cc2nc1N1CCN(c2ccccc2)CC1
2. O=[N+]([O-])C(/C=C(\Cl)[N+](=O)[O-])=C(N1CCCCC1)N1CCCCC1
3. CN1C(=O)C2(c3ccccc31)C1CC3C(CO1)C1C2C3(CO)CN1C#N (stereo unspecified)
4. COc1cccc(C2SCc3nc4ccccc4n32)c1 (stereo unspecified)

Ans:
> 100 µM
> 100 µM
> 100 µM
> 100 µM

Dear reader, for each entry below, please note its TGI.
1. CCCCCCCCCCOC(=O)NCCC
2. CC(=O)n1[nH]c(=O)n(-c2ccccc2)c1=O
3. O=S(=O)(CCC[C@H]1[C@@H](CCOCc2ccccc2)C2CCCN1O2)c1ccccc1 (stereo partly specified)
4. O=C(O)c1c2c(cc3c(=O)cc(-c4ccccc4)oc13)CCCC2

Ans:
["67.7 µM", "> 100 µM", "> 100 µM", "> 100 µM"]

---

Test system: HCT-116 colon
test_protocol: NCI tumour cell line growth inhibition, 48 h
result_type: TGI

N#Cc1c(N/N=C\c2ccc(Cl)cc2)nc(N)nc1N1CCOCC1 : > 100 µM
COc1ccc(OC)c(/C=C/c2ccnc3ccccc23)c1 : 8.09 µM
Cc1ccc(C2=Nc3ccccc3S(=O)C(c3ccc4c(c3)OCO4)C2)cc1 (stereo unspecified) : 37.3 µM
O=C(CN=C(CN(c1ccccc1)c1ccccc1)Oc1ccc(Cl)cc1Cl)n1ccnc1 : > 100 µM

Dear reader, for each entry below, please note its TGI.
1. O=C1CS(=O)(=O)C(c2cccc(Oc3ccccc3)c2)N1C1CC1 (stereo unspecified)
2. O=S(=O)(NCCCNc1cc(-c2cn(-c3ccccc3)nc2-c2cccc(O)c2)ccn1)c1ccc(Br)cc1
3. CN(C)C=Nc1c(I)cc(I)c(CCC(=O)O)c1I
4. COc1cc(C2CC(=O)Nc3c2c(C)nn3-c2nc3ccccc3[nH]2)cc(OC)c1O (stereo unspecified)

Ans:
1. > 100 µM
2. 4.22 µM
3. > 100 µM
4. > 100 µM

Dear reader, for each entry below, please note its TGI.
1. CCOC(=O)C1(N)CC1
2. O=CN1CCC23CC(O)CCC2C1Cc1cc(Oc2nnnn2-c2ccccc2)cc(O)c13 (stereo unspecified)
3. OCC1CCCC1O (stereo unspecified)
4. Cc1sc2c(c1C)C(c1ccc(Cl)cc1)=N[C@@H](CC(=O)NCCCN1CCN(C)CC1)c1nnc(C)n1-2

Ans:
["> 100 µM", "> 100 µM", "> 100 µM", "> 100 µM"]

Dear reader, for each entry below, please note its TGI.
1. N=C(N)c1ccc(N=Nc2c(O)ccc3cc4c(N=Nc5ccc(C(=N)N)cc5)c(O)ccc4cc23)cc1
2. S=C1CC(c2ccccc2)Sc2cc(Cl)ccc2N1 (stereo unspecified)
3. O=[N+]([O-])C(/C=C(\Cl)[N+](=O)[O-])=C(N1CCCCC1)N1CCCCC1
4. CC(C)OP(=O)(OC(C)C)C(=NCCN=C(NNc1ccccc1[N+](=O)[O-])P(=O)(OC(C)C)OC(C)C)NNc1ccccc1[N+](=O)[O-]
5. C=C1C(=O)O[C@H]2[C@H]1CC/C(CNC(=O)/C=C/c1ccccc1F)=C\CC[C@@]1(C)O[C@@H]21
6. O=c1cccc2n1CC1CNC[C@H]2C1
7. O=C1c2cc(F)ccc2-c2c1c1ccc([N+](=O)[O-])cc1c(=O)n2CCCBr
8. CCNc1nnc(-c2ccccc2Nc2ccccc2-c2nnc(NCC)s2)s1

Ans:
["> 100 µM", "17.2 µM", "62.4 µM", "> 100 µM", "1.69 µM", "> 100 µM", "36.7 µM", "> 56 µM"]

Q: # value lookup — system HCT-116 colon, readout TGI, item NC(=O)CCC(NC(=O)c1c2ccccc2nc2ccccc12)C(=O)O (stereo unspecified)
Ans: > 100 µM
